All figures here come from paper PMC5841289.

target: GST-tagged SIRT6 (Homo sapiens); construct: made in house; host or cells: E. coli BL21(DE3)-pRARE; experiment: HPLC-based SIRT6 deacetylation assay with H3K9Ac peptide; type: biochemical; conditions: 100 µM compound, 40 µM H3K9Ac, mean ± SD, n=3; fold per Fig. 2C legend
measured-quantity: Activation 100 µM (fold)

O=c1cc(-c2ccc(O)c(O)c2)oc2cc(O)cc(O)c12
1.2
Oc1cc(O)c2c(c1)O[C@@H](c1cc(O)c(O)c(O)c1)[C@H](O)C2 [Compound 3, (−)-Gallocatechin]
0.2
O=C(O)C=Cc1ccc(O)cc1
0.6

P = O=c1c(O)c(-c2ccc(O)cc2)oc2cc(O)cc(O)c12
Q = COc1cc(/C=C/C(=O)O)ccc1O [Compound 26, trans-Ferulic acid]
Q: // returns P or Q , whichever has the lower Activation 100 µM Mark your selection by writing its label.
Result: Q

P = COc1cc(/C=C/C(=O)O)cc(OC)c1O
Q = O=C(O[C@@H]1Cc2c(O)cc(O)cc2O[C@H]1c1ccc(O)c(O)c1)c1cc(O)c(O)c(O)c1 [Compound 4, (−)-Catechin gallate]
R = O=C(O)/C=C/c1ccc(O)c(O)c1
S = COc1cc(CCC(=O)O)ccc1O
Q: Would you mind ranking these compounds by ascending Activation 100 µM? Please write the labels in the order that was asked for.
Result: Q, P, R, S
(Q: 0.1 fold, P: 0.6 fold, R: 1.0 fold, S: 1.8 fold)

----------
biological target: GST-tagged SIRT6 (Homo sapiens, UniProt Q8N6T7); construct: made in house; host or cells: E. coli BL21(DE3)-pRARE; test: HPLC-based SIRT6 deacetylation assay with H3K9Ac peptide;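 further: recombinant SIRT6 incubated 30 min at 37 °C with 500 µM NAD+ and H3K9Ac peptide, deacetylated H3K9 quantified by reversed-phase HPLC-MRM peak area versus DMSO control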; type: biochemical; conditions: 100 µM compound, 40 µM H3K9Ac, mean ± SD, n=3; fold per Fig. 2C legend
Sequence (Q8N6T7 whole entry): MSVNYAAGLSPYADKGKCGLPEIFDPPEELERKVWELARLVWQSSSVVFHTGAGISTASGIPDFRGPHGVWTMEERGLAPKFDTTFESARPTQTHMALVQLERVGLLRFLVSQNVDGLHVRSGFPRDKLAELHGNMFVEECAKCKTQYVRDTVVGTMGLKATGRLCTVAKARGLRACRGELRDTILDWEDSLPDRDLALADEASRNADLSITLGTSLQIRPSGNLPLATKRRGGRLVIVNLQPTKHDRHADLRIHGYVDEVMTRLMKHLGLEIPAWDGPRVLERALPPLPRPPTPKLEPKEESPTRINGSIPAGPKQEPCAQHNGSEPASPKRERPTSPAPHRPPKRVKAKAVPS
measured-quantity: Activation 100 µM (fold)

Example compounds with recorded Activation 100 µM:
O=C1C[C@@H](c2ccc(O)c(O)c2)Oc2cc(O)cc(O)c21
1.1
Oc1cc(O)c2c(c1)O[C@H](c1ccc(O)c(O)c1)[C@@H](O)C2 [Compound 1, (+)-Catechin]
0.8

I = O=C(O[C@@H]1Cc2c(O)cc(O)cc2O[C@@H]1c1ccc(O)c(O)c1)c1cc(O)c(O)c(O)c1 [Compound 8, (−)-Epicatechin gallate]
II = O=C1C[C@@H](c2ccc(O)cc2)Oc2cc(O)cc(O)c21
Q: Which entry shows the lesser value of Activation 100 µM here, I or II ? Please identify the chosen entry by its label.
Result: I
(I: 0.1 fold, II: 1.1 fold)
